conditions: in n-propanol, 313.1 K
Reported Endpoint: solubility (mole fraction)
# print the numeric value only

**Q:** Returns the measured solubility (mole fraction) for the input molecule. Input: `N[C@@H](CC(=O)N1CCn2c(nnc2C(F)(F)F)C1)Cc1cc(F)c(F)cc1F`
**A:** 0.0433

---

conditions: in n-propanol, 308.15 K
Reported Endpoint: solubility (mole fraction)
# print the numeric value only

**Q:** Returns the measured solubility (mole fraction) for the input molecule. Input: `N[C@@H](CC(=O)N1CCn2c(nnc2C(F)(F)F)C1)Cc1cc(F)c(F)cc1F`
**A:** 0.0387

---

conditions: in ethanol, 303.15 K
Reported Endpoint: solubility (mole fraction)

**Q:** Returns the measured solubility (mole fraction) for the input compound. Input: `N[C@@H](CC(=O)N1CCn2c(nnc2C(F)(F)F)C1)Cc1cc(F)c(F)cc1F`
**A:** 0.0363
